# target: CDK4 (Homo sapiens)
# Sequence (P11802 whole entry, species assumed): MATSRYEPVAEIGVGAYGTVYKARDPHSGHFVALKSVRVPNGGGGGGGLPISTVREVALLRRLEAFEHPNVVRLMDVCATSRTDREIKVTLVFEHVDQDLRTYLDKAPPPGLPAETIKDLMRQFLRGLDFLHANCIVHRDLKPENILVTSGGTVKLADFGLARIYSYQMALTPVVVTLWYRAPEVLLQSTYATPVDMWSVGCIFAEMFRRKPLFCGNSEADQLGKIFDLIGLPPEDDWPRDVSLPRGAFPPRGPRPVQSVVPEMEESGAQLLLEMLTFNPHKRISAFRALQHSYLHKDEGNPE
# Sequence (P24385 whole entry partner, species assumed): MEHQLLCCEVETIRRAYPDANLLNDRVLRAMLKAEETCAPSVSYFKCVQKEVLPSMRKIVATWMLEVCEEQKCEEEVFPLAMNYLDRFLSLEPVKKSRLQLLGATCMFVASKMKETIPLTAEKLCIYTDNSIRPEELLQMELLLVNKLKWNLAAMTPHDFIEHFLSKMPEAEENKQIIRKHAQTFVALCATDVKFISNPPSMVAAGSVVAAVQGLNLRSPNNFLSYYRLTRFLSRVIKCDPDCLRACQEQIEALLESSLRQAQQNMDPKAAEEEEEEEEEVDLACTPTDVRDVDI
# experiment: biochemical
# experimental conditions: CDK4 SPA (Ex. C.1): pIC50 values
Response field class: enum, chosen by comparing IC50 against c1 (below 100 nM), c2 (100 nM to below 200 nM), c3 (200 nM or more)

Enquiry: Classify this compound: CC(C)n1nc(-c2ccc(OCCN3CCOCC3)c(Cl)c2)nc2c(=O)n(C)c(=O)nc1-2
Return: c2

Enquiry: Classify this compound: CC(C)n1nc(-c2ccc(CN3CCN(S(N)(=O)=O)CC3)cc2)nc2c(=O)n(C)c(=O)nc1-2
Return: c1

Enquiry: Classify this compound: Cn1c(=O)nc2n(C3CCNCC3)nc(-c3ccc(CCCN4CCCCC4)cc3)nc-2c1=O
Return: c1

Enquiry: Classify this compound: CC(C)n1nc(-c2ccc(OCCN)cc2)nc2c(=O)n(C)c(=O)nc1-2
Return: c3

Enquiry: Classify this compound: CC(C)n1nc(-c2ccc(CN(C)CCO)cc2)nc2c(=O)n(C)c(=O)nc1-2
Return: c2

Enquiry: Classify this compound: CC(C)n1nc(-c2ccc(OS(=O)(=O)N(C)C)cc2)nc2c(=O)n(C)c(=O)nc1-2
Return: c3

Enquiry: Classify this compound: CC(C)n1nc(-c2ccc(OCCCN3CCOCC3)cc2)nc2c(=O)n(C)c(=O)nc1-2
Return: c3

Enquiry: Classify this compound: COCCNCc1ccc(-c2nc3c(=O)n(C)c(=O)nc-3n(C(C)C)n2)cc1
Return: c2

Enquiry: Classify this compound: CC(C)n1nc(-c2ccc(CNCCc3cccnc3)cc2)nc2c(=O)n(C)c(=O)nc1-2
Return: c2

---

# target: CDC25B (Homo sapiens, UniProt P30305)
# Sequence (P30305 1-580): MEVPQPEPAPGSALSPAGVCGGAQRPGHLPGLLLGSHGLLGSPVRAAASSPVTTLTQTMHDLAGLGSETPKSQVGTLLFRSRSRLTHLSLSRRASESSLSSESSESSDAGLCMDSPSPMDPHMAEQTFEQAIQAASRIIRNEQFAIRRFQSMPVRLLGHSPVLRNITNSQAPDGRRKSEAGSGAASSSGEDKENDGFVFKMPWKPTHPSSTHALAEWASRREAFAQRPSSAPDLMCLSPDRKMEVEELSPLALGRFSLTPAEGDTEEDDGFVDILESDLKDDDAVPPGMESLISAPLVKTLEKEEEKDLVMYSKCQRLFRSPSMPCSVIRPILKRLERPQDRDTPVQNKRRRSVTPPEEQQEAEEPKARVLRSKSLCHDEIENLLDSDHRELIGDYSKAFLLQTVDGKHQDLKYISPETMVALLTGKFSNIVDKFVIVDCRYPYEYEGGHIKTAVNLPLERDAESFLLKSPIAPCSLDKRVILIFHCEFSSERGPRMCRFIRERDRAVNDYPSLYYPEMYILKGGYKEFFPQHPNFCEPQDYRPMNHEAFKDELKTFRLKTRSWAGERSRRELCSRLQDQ
# experiment: biochemical
# experimental conditions: read-out: CDC25B WT (Ex. C.5): pIC50 values (converted)
Quick rule for you: IC50 under 40 nM gets y, anything else gets n.

Enquiry: Field: below-cutoff. Rule: recorded IC50 strictly less than 40 nM. Subject: CC(C)n1nc(-c2ccc(OCCN3CCN(S(=O)(=O)N(C)C)CC3)cc2)nc2c(=O)n(C)c(=O)nc1-2
Return: y

Enquiry: Field: below-cutoff. Rule: recorded IC50 strictly less than 40 nM. Subject: CC(C)n1nc(-c2ccc(CNC3CCN(S(=O)(=O)N(C)C)CC3)cc2)nc2c(=O)n(C)c(=O)nc1-2
Return: y

Enquiry: Field: below-cutoff. Rule: recorded IC50 strictly less than 40 nM. Subject: CC(C)n1nc(-c2ccc(CNC3CCNCC3)cc2)nc2c(=O)n(C)c(=O)nc1-2
Return: n

Enquiry: Field: below-cutoff. Rule: recorded IC50 strictly less than 40 nM. Subject: COc1cc(-c2nc3c(=O)n(C)c(=O)nc-3n(C(C)C)n2)cc(OC)c1OCCN1CCN(S(N)(=O)=O)CC1
Return: n

Enquiry: Field: below-cutoff. Rule: recorded IC50 strictly less than 40 nM. Subject: COc1cc(-c2nc3c(=O)n(C)c(=O)nc-3n(C(C)C)n2)cc(OC)c1OCCN1CCCCC1 [Compound 77]
Return: n

Enquiry: Field: below-cutoff. Rule: recorded IC50 strictly less than 40 nM. Subject: Cn1c(=O)nc2n(C3CCCC3)nc(-c3ccc(CN4CCNCC4)cc3)nc-2c1=O
Return: n

Enquiry: Field: below-cutoff. Rule: recorded IC50 strictly less than 40 nM. Subject: COc1cc(-c2nc3c(=O)n(C)c(=O)nc-3n(C(C)C)n2)cc(OC)c1OS(=O)(=O)N(C)C
Return: y

Enquiry: Field: below-cutoff. Rule: recorded IC50 strictly less than 40 nM. Subject: COc1cc(-c2nc3c(=O)n(C)c(=O)nc-3n(C(C)C)n2)cc(OC)c1OCCN1CCN(C)CC1
Return: n

Enquiry: Field: below-cutoff. Rule: recorded IC50 strictly less than 40 nM. Subject: CC(C)n1nc(-c2ccc(OCCN3CCN(C)CC3)cc2)nc2c(=O)n(C)c(=O)nc1-2
Return: n

Enquiry: Field: below-cutoff. Rule: recorded IC50 strictly less than 40 nM. Subject: CC(C)n1nc(-c2ccc(OCCN(C)S(=O)(=O)N(C)C)cc2)nc2c(=O)n(C)c(=O)nc1-2
Return: n

Enquiry: Field: below-cutoff. Rule: recorded IC50 strictly less than 40 nM. Subject: COc1cc(-c2nc3c(=O)n(C)c(=O)nc-3n(C(C)C)n2)cc(OC)c1OCCN1CCCCC1 [Compound 106]
Return: y

Enquiry: Field: below-cutoff. Rule: recorded IC50 strictly less than 40 nM. Subject: CC(C)n1nc(-c2ccc(OCCN3CCN(C(=O)OC(C)(C)C)CC3)cc2)nc2c(=O)n(C)c(=O)nc1-2
Return: y

Enquiry: Field: below-cutoff. Rule: recorded IC50 strictly less than 40 nM. Subject: CC(C)n1nc(-c2ccc(OCCN3CCCCC3)cc2)nc2c(=O)n(C)c(=O)nc1-2
Return: y

Enquiry: Field: below-cutoff. Rule: recorded IC50 strictly less than 40 nM. Subject: CC(C)n1nc(-c2ccc(OCCN3CCNCC3)cc2)nc2c(=O)n(C)c(=O)nc1-2
Return: n

---

# target: AKT3 (Homo sapiens, UniProt Q9Y243)
# Sequence (Q9Y243 whole entry): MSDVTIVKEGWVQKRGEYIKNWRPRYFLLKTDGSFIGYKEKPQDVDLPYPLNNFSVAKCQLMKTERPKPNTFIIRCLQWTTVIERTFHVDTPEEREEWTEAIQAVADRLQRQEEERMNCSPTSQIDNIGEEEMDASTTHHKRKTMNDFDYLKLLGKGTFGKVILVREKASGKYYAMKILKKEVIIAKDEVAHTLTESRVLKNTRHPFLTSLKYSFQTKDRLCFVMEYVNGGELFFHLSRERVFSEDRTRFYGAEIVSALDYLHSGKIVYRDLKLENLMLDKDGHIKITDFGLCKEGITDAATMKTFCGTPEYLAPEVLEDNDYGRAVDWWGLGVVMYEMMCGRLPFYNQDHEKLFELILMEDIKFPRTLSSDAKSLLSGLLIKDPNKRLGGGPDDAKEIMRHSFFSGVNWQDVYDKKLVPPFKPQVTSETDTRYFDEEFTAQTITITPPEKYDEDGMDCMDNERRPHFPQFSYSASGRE
# experiment: cell-based
# experimental conditions: AKT cel (Ex. C.6): pIC50 values, MDA-MB 231 cells, phosphorylated MAPK read-out
Answer each item with its documented IC50.
The reply should contain only the number, in nM.

Enquiry: Recall and state the measured IC50 for COCCNCc1ccc(-c2nc3c(=O)n(C)c(=O)nc-3n(C(C)C)n2)cc1 [Compound 100] .
Return: 407

Enquiry: Recall and state the measured IC50 for CC(C)n1nc(-c2ccc(CN(C)CCO)cc2)nc2c(=O)n(C)c(=O)nc1-2 [Compound 111] .
Return: 791

Enquiry: Recall and state the measured IC50 for CC(C)n1nc(-c2ccc(OCCN)cc2)nc2c(=O)n(C)c(=O)nc1-2 [Compound 101] .
Return: 513

Enquiry: Recall and state the measured IC50 for Cn1c(=O)nc2n(C3CCNCC3)nc(-c3ccc(CCCN4CCCCC4)cc3)nc-2c1=O [Compound 155] .
Return: 469

---

# target: AKT3 (Homo sapiens)
# experiment: cell-based
# experimental conditions: read-out: AKT cel (Ex. C.6): pIC50 values (converted)
Answer each item with its documented IC50.

Enquiry: Recall and state the measured IC50 for CC(C)n1nc(-c2ccc(CN3CCN(S(=O)(=O)N(C)C)CC3)cc2)nc2c(=O)n(C)c(=O)nc1-2 [Compound 103] .
Return: > 3.02 µM

Enquiry: Recall and state the measured IC50 for CC(C)n1nc(-c2ccc(CNC3CCN(S(=O)(=O)N(C)C)CC3)cc2)nc2c(=O)n(C)c(=O)nc1-2 [Compound 99] .
Return: 0.432 µM

Enquiry: Recall and state the measured IC50 for CC(C)n1nc(-c2ccc(OCCCN3CCCCC3)cc2)nc2c(=O)n(C)c(=O)nc1-2 [Compound 81] .
Return: > 1 µM

Enquiry: Recall and state the measured IC50 for CC(C)n1nc(-c2ccc(CNC3CCNCC3)cc2)nc2c(=O)n(C)c(=O)nc1-2 [Compound 98] .
Return: > 3 µM

Enquiry: Recall and state the measured IC50 for COc1cc(-c2nc3c(=O)n(C)c(=O)nc-3n(C(C)C)n2)cc(OC)c1OCCN1CCN(S(N)(=O)=O)CC1 [Compound 96] .
Return: > 3 µM

Enquiry: Recall and state the measured IC50 for COc1cc(-c2nc3c(=O)n(C)c(=O)nc-3n(C(C)C)n2)cc(OC)c1OCCN1CCCCC1 [Compound 106] .
Return: > 3.02 µM

Enquiry: Recall and state the measured IC50 for CC(C)n1nc(-c2ccc(OCCN3CCN(S(=O)(=O)N(C)C)CC3)cc2)nc2c(=O)n(C)c(=O)nc1-2 [Compound 79] .
Return: ≥ 3 µM

Enquiry: Recall and state the measured IC50 for Cn1c(=O)nc2n(C3CCCC3)nc(-c3ccc(CN4CCNCC4)cc3)nc-2c1=O [Compound 153] .
Return: 0.495 µM

Enquiry: Recall and state the measured IC50 for CC(C)n1nc(-c2ccc(OCCN3CCCCC3)c(Cl)c2)nc2c(=O)n(C)c(=O)nc1-2 [Compound 88] .
Return: > 1 µM

Enquiry: Recall and state the measured IC50 for COc1cc(-c2nc3c(=O)n(C)c(=O)nc-3n(C3CCNCC3)n2)ccc1OCCN1CCCCC1 [Compound 152] .
Return: ≥ 3 µM

Enquiry: Recall and state the measured IC50 for COc1cc(-c2nc3c(=O)n(C)c(=O)nc-3n(C(C)C)n2)cc(OC)c1OCCN1CCN(C(=O)OC(C)(C)C)CC1 [Compound 89] .
Return: > 1 µM

Enquiry: Recall and state the measured IC50 for CC(C)n1nc(-c2ccc(OCCN3CCNCC3)cc2)nc2c(=O)n(C)c(=O)nc1-2 [Compound 82] .
Return: 0.216 µM

Enquiry: Recall and state the measured IC50 for CC(C)n1nc(-c2ccc(OCCNS(=O)(=O)N(C)C)cc2)nc2c(=O)n(C)c(=O)nc1-2 [Compound 109] .
Return: > 3.02 µM

Enquiry: Recall and state the measured IC50 for CC(C)n1nc(-c2ccc(OCCN3CCNCC3)c(Cl)c2)nc2c(=O)n(C)c(=O)nc1-2 [Compound 104] .
Return: 0.726 µM

Enquiry: Recall and state the measured IC50 for COc1cc(-c2nc3c(=O)n(C)c(=O)nc-3n(C(C)C)n2)cc(OC)c1OCCN1CCCCC1 [Compound 77] .
Return: > 1 µM

Enquiry: Recall and state the measured IC50 for COc1cc(-c2nc3c(=O)n(C)c(=O)nc-3n(C(C)C)n2)ccc1OCCN1CCCCC1 [Compound 78] .
Return: 0.301 µM

Enquiry: Recall and state the measured IC50 for COc1cc(-c2nc3c(=O)n(C)c(=O)nc-3n(C(C)C)n2)cc(OC)c1OS(=O)(=O)N(C)C [Compound 86] .
Return: > 1 µM

Enquiry: Recall and state the measured IC50 for CC(C)n1nc(-c2ccc(OCCN(C)S(=O)(=O)N(C)C)cc2)nc2c(=O)n(C)c(=O)nc1-2 [Compound 95] .
Return: > 3 µM

Enquiry: Recall and state the measured IC50 for CC(C)n1nc(-c2ccc(OCCN3CCN(C)CC3)cc2)nc2c(=O)n(C)c(=O)nc1-2 [Compound 97] .
Return: > 3 µM

Enquiry: Recall and state the measured IC50 for COc1cc(-c2nc3c(=O)n(C)c(=O)nc-3n(C(C)C)n2)cc(OC)c1OCCN(C)C1CCNCC1 [Compound 105] .
Return: > 3.02 µM

Enquiry: Recall and state the measured IC50 for COc1cc(-c2nc3c(=O)n(C)c(=O)nc-3n(C(C)C)n2)cc(OC)c1OCCN1CCN(C)CC1 [Compound 85] .
Return: > 1 µM

Enquiry: Recall and state the measured IC50 for CC(C)n1nc(-c2ccc(OCCN3CCN(C(=O)OC(C)(C)C)CC3)cc2)nc2c(=O)n(C)c(=O)nc1-2 [Compound 80] .
Return: > 0.3 µM

Enquiry: Recall and state the measured IC50 for CC(C)n1nc(-c2ccc(CN(C)C3CCN(S(=O)(=O)N(C)C)CC3)cc2)nc2c(=O)n(C)c(=O)nc1-2 [Compound 113] .
Return: > 3.02 µM
